Target: HIV-1 protease KY24 (Human immunodeficiency virus type 1, UniProt P12497)
Details: read-out: Ki KY24; drug-resistant protease variant KY24

{"columns": ["Molecule", "Unit of measure", "Ki"],
 "data": [
  ["CCOP(=O)(COc1ccc(C[C@H](NC(=O)O[C@H]2CO[C@H]3OCC[C@H]32)[C@H](O)CN(C[C@@H](C)CC)S(=O)(=O)c2ccc(CO)cc2)cc1)OCC [Example 6]", "nM", 1.89],
  ["CCOP(=O)(COc1ccc(C[C@H](NC(=O)O[C@H]2CO[C@H]3OCC[C@H]32)[C@H](O)CN(C[C@@H](C)CC)S(=O)(=O)c2ccc(N)cc2)cc1)OCC [Example 5]", "nM", 2.31],
  ["CCOP(=O)(COc1ccc(C[C@H](NC(=O)O[C@H]2CO[C@H]3OCC[C@H]32)[C@H](O)CN(CC(CC)CC)S(=O)(=O)c2ccc3c(c2)OCO3)cc1)OCC [Example 4]", "nM", 0.08],
  ["CCOP(=O)(COc1ccc(C[C@H](NC(=O)O[C@H]2CO[C@H]3OCC[C@H]32)[C@H](O)CN(CC(CC)CC)S(=O)(=O)c2ccc(OC)cc2)cc1)OCC [Example 8]", "nM", 0.16],
  ["CCOP(=O)(COc1ccc(C[C@H](NC(=O)O[C@H]2CO[C@H]3OCC[C@H]32)[C@H](O)CN(C[C@@H](C)CC)S(=O)(=O)c2ccc(OC)cc2)cc1)OCC [Example 3]", "nM", 0.16],
  ["CCOP(=O)(COc1ccc(C[C@H](NC(=O)O[C@H]2CO[C@H]3OCC[C@H]32)[C@H](O)CN(CC(CC)CC)S(=O)(=O)c2ccc(N)cc2)cc1)OCC [Example 7]", "nM", 1.08],
  ["CCOP(=O)(COc1ccc(C[C@H](NC(=O)O[C@H]2CO[C@H]3OCC[C@H]32)[C@H](O)CN(CC(C)C)S(=O)(=O)c2ccc3ncsc3c2)cc1)OCC [Example 10]", "nM", 0.23],
  ["CCOP(=O)(COc1ccc(C[C@H](NC(=O)O[C@H]2CO[C@H]3OCC[C@H]32)[C@H](O)CN(CC(CC)CC)S(=O)(=O)c2ccc(CO)cc2)cc1)OCC [Example 13]", "nM", 0.6],
  ["CCOP(=O)(COc1ccc(C[C@H](NC(=O)O[C@H]2CO[C@H]3OCC[C@H]32)[C@H](O)CN(C[C@@H](C)CC)S(=O)(=O)c2ccc3ncsc3c2)cc1)OCC [Example 11]", "nM", 0.09],
  ["CCOP(=O)(COc1ccc(C[C@H](NC(=O)O[C@H]2CO[C@H]3OCC[C@H]32)[C@H](O)CN(CC(C)C)S(=O)(=O)c2ccc3c(c2)OCO3)cc1)OCC [Example 9]", "nM", 0.36]
]}

Hey, just so you know, these numbers are from patent US11542288B2.
